# System: tissues of the injected area (rat paw)
# ASSAY DETAILS: H&E staining histological test (inflammation) of injected rat paw
# Assay type: in vivo, Sprague Dawley rats
# ASSAY CONDITIONS: bile acid single composition 2.5% (w/v), injected rat paw
# Procedure: The tissues of the injected area were dissected, fixed with 10% formalin, and then the specimen was prepared and images were captured using an optical microscope. The degree of inflammation was evaluated as follows.
PARAMETER MEASURED: Inflammation (H&E), BA % (w/v) 2.5

Recorded results for 4 compounds are shown here.
- COMPOUND: "C[C@H](CCC(=O)O)[C@H]1CC[C@H]2[C@@H]3[C@H](O)C[C@@H]4C[C@H](O)CC[C@]4(C)[C@H]3CC[C@]12C [CDCA]"
  Inflammation (H&E), BA % (w/v) 2.5: "+++"
- COMPOUND: "C[C@H](CCC(=O)NCC(=O)O)[C@H]1CC[C@H]2[C@@H]3[C@H](O)C[C@@H]4C[C@H](O)CC[C@]4(C)[C@H]3C[C@H](O)[C@]12C [GCA]"
  Inflammation (H&E), BA % (w/v) 2.5: "++"
- COMPOUND: "C[C@H](CCC(=O)NCCS(=O)(=O)O)[C@H]1CC[C@H]2[C@@H]3[C@@H](O)C[C@@H]4C[C@H](O)CC[C@]4(C)[C@H]3CC[C@]12C [TUDCA]"
  Inflammation (H&E), BA % (w/v) 2.5: "−"
- COMPOUND: "C[C@H](CCC(=O)NCC(=O)O)[C@H]1CC[C@H]2[C@@H]3CCC4C[C@H](O)CC[C@]4(C)[C@H]3C[C@H](O)[C@]12C (some centres unmarked) [GDCA]"
  Inflammation (H&E), BA % (w/v) 2.5: "+++"

Next up:
Quick one: Inflammation (H&E), BA % (w/v) 2.5 for C[C@H](CCC(=O)NCCS(=O)(=O)O)[C@H]1CC[C@H]2[C@@H]3[C@H](O)C[C@@H]4C[C@H](O)CC[C@]4(C)[C@H]3C[C@H](O)[C@]12C [TCA] ?
++

---

# Test system: sole of the rat paws
# ASSAY DETAILS: Measurement of skin lesion (erythema) on rat paw;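 further: grades − to ++++ mean no to extremely severe erythema versus before injection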
# Format: in vivo, Sprague Dawley rats
# ASSAY CONDITIONS: bile acid single composition 5.0% (w/v)
PARAMETER MEASURED: grade of skin lesion (erythema), Immediately after administration

- COMPOUND: "C[C@H](CCC(=O)O)[C@H]1CC[C@H]2[C@@H]3[C@@H](O)C[C@@H]4C[C@H](O)CC[C@]4(C)[C@H]3CC[C@]12C"
  ENDPOINT VALUE: "++"
- COMPOUND: "C[C@H](CCC(=O)NCC(=O)O)[C@H]1CC[C@H]2[C@@H]3CCC4C[C@H](O)CC[C@]4(C)[C@H]3C[C@H](O)[C@]12C (some centres unmarked)"
  ENDPOINT VALUE: "++"
- COMPOUND: "C[C@H](CCC(=O)NCCS(=O)(=O)O)[C@H]1CC[C@H]2C3CC[C@@H]4C[C@H](O)CC[C@]4(C)[C@H]3C[C@H](O)[C@]12C (some centres unmarked)"
  ENDPOINT VALUE: "++"
- COMPOUND: "C[C@H](CCC(=O)NCC(=O)O)[C@H]1CC[C@H]2[C@@H]3[C@H](O)C[C@@H]4C[C@H](O)CC[C@]4(C)[C@H]3C[C@H](O)[C@]12C"
  ENDPOINT VALUE: "+"

Quick one: grade of skin lesion (erythema), Immediately after administration for C[C@H](CCC(=O)NCCS(=O)(=O)O)[C@H]1CC[C@H]2[C@@H]3[C@@H](O)C[C@@H]4C[C@H](O)CC[C@]4(C)[C@H]3CC[C@]12C ?
−

Quick one: grade of skin lesion (erythema), Immediately after administration for C[C@H](CCC(=O)O)[C@H]1CC[C@H]2[C@@H]3[C@H](O)C[C@@H]4C[C@H](O)CC[C@]4(C)[C@H]3CC[C@]12C ?
++

Quick one: grade of skin lesion (erythema), Immediately after administration for C[C@H](CCC(=O)O)[C@H]1CC[C@H]2[C@@H]3CC[C@@H]4C[C@H](O)CC[C@]4(C)[C@H]3C[C@H](O)[C@]12C ?
++

Quick one: grade of skin lesion (erythema), Immediately after administration for C[C@H](CCC(=O)O)[C@H]1CC[C@H]2[C@@H]3C[C@H](O)[C@@H]4C[C@H](O)CC[C@]4(C)[C@H]3CC[C@]12C ?
+

---

# Test system: sole of the rat paws
# ASSAY DETAILS: Measurement of skin lesion (erythema) on rat paw;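 further: grades − to ++++ mean no to extremely severe erythema versus before injection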
# Format: in vivo, Sprague Dawley rats
# ASSAY CONDITIONS: bile acid single composition 1.0% (w/v)
PARAMETER MEASURED: grade of skin lesion (erythema), 1 hour after administration

Recorded results for 5 compounds are shown here.
- COMPOUND: "C[C@H](CCC(=O)O)[C@H]1CC[C@H]2[C@@H]3[C@@H](O)C[C@@H]4C[C@H](O)CC[C@]4(C)[C@H]3CC[C@]12C [UDCA]"
  ASSAY TARGET: "sole of the rat paws"
  ENDPOINT VALUE: "++"
- COMPOUND: "C[C@H](CCC(=O)O)[C@H]1CC[C@H]2[C@@H]3CC[C@@H]4C[C@H](O)CC[C@]4(C)[C@H]3C[C@H](O)[C@]12C [DCA]"
  ASSAY TARGET: "sole of the rat paws"
  ENDPOINT VALUE: "++"
- COMPOUND: "C[C@H](CCC(=O)O)[C@H]1CC[C@H]2[C@@H]3C[C@H](O)[C@@H]4C[C@H](O)CC[C@]4(C)[C@H]3CC[C@]12C [HDCA]"
  ASSAY TARGET: "sole of the rat paws"
  ENDPOINT VALUE: "+"
- COMPOUND: "C[C@H](CCC(=O)NCC(=O)O)[C@H]1CC[C@H]2[C@@H]3[C@H](O)C[C@@H]4C[C@H](O)CC[C@]4(C)[C@H]3C[C@H](O)[C@]12C [GCA]"
  ASSAY TARGET: "sole of the rat paws"
  ENDPOINT VALUE: "−"
- COMPOUND: "C[C@H](CCC(=O)NCCS(=O)(=O)O)[C@H]1CC[C@H]2C3CC[C@@H]4C[C@H](O)CC[C@]4(C)[C@H]3C[C@H](O)[C@]12C (some centres unmarked) [TDCA]"
  ASSAY TARGET: "sole of the rat paws"
  ENDPOINT VALUE: "+++"

Quick one: grade of skin lesion (erythema), 1 hour after administration for C[C@H](CCC(=O)NCC(=O)O)[C@H]1CC[C@H]2[C@@H]3CCC4C[C@H](O)CC[C@]4(C)[C@H]3C[C@H](O)[C@]12C (some centres unmarked) [GDCA] ?
++

Quick one: grade of skin lesion (erythema), 1 hour after administration for C[C@H](CCC(=O)NCCS(=O)(=O)O)[C@H]1CC[C@H]2[C@@H]3[C@@H](O)C[C@@H]4C[C@H](O)CC[C@]4(C)[C@H]3CC[C@]12C [TUDCA] ?
−

Quick one: grade of skin lesion (erythema), 1 hour after administration for C[C@H](CCC(=O)O)[C@H]1CC[C@H]2[C@@H]3[C@H](O)C[C@@H]4C[C@H](O)CC[C@]4(C)[C@H]3CC[C@]12C [CDCA] ?
++
